System: PLK4
Conditions: concentration: 1 μM, replicates: in singlicate; n = 1;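 further: KINOMEscan kinase panel screen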
Please note: %Inh exactly at 7% is false. Only values below 7% get true.

# TODO verify %Inh < 7% strictly for this compound: Cl.c1ccc(-c2ccc3c(Nc4ccc5[nH]ccc5c4)ccnc3c2)nc1
false

# TODO verify %Inh < 7% strictly for this compound: CCc1ccc(-c2ccc3c(c2)-c2c(cnn2C)S(=O)(=O)N3C)cc1
false

# TODO verify %Inh < 7% strictly for this compound: O=C(O)C(F)(F)F.O=C(O)C(F)(F)F.O=c1[nH]ccc2nc(N[C@@H]3CCCNC3)nc(Nc3ccc(S(=O)(=O)N4CCOCC4)cc3)c12
false

# TODO verify %Inh < 7% strictly for this compound: COc1ccc(CNC(=O)NC2CCN(c3ccnc(Nc4ccc(F)cc4)n3)CC2)cc1
true

# TODO verify %Inh < 7% strictly for this compound: CC(=O)N1CCN(c2ccc(Nc3nccc(-c4sc(C(C)C)nc4-c4cccc(NS(=O)(=O)c5cccc(Cl)c5)c4)n3)cn2)CC1
false

# TODO verify %Inh < 7% strictly for this compound: Cc1cccc(Nc2nc(N[C@H]3CCNC3)ncc2C(N)=O)c1.Cl
true

# TODO verify %Inh < 7% strictly for this compound: O=C(Nc1cccc(-c2nn3ncccc3c2-c2ccnc(Nc3ccccc3)n2)c1)c1c(F)cccc1F
true

# TODO verify %Inh < 7% strictly for this compound: O=C(Nc1n[nH]c2nc(-c3ccc(O)cc3)ccc12)C1CC1
false

----------
Can you tell me %Inh for the items I'm about to list?
System: FGFR1
Settings: concentration: 1 μM, replicates: in singlicate; n = 1
The reply should contain only the number, in %.

// COc1cc(Nc2nccc(N3CCC(NC(=O)Nc4cccc(C(C)=O)c4)C3)n2)cc(OC)c1OC (stereo not shown) : %Inh value = 3

// Fc1ccc(-c2ncn(C3CCNCC3)c2-c2ccnc(Oc3ccc(-c4ccccc4)cc3)n2)cc1 : %Inh value = 19

// CN1CCN(Cc2cccc(-c3ccc4c(Nc5ccc(Oc6ccccc6)cc5)ccnc4c3)c2)CC1 : %Inh value = 22

// COc1cc(Nc2nccc(-c3c(-c4cccc(NC(=O)c5c(F)cccc5F)c4)nn4ccccc34)n2)cc(OC)c1OC : %Inh value = 17

// O=C(Nc1cccc(-c2nn3ccccc3c2-c2ccnc(Nc3cccc(F)c3)n2)c1)c1c(F)ccc(F)c1Cl : %Inh value = 14

// Cc1ccc(C)c(NC(=O)NC2CCN(c3ccnc(Nc4ccc(F)cc4)n3)C2)c1 (stereo not shown) : %Inh value = 0

// CCCCc1nn2ncccc2c1-c1ccnc(Nc2ccc(N3CCN(C)CC3)cc2)n1 : %Inh value = 97.9

// COc1ccc(CNC(=O)NC2CCN(c3ccnc(Nc4ccc(F)cc4)n3)CC2)cc1 : %Inh value = 0

// NCCCC(NC(=O)c1cc(Br)c(-c2ccnc3[nH]ccc23)s1)c1ccccc1.O=C(O)C(F)(F)F.O=C(O)C(F)(F)F (stereo not shown) : %Inh value = 52

// Cc1cccc(NC(=O)Nc2ccc(Oc3ncnc4ccn(C)c34)cc2)c1 : %Inh value = 0

// Cl.Cl.NCC(C(=O)Nc1cc(Br)c(-c2ccnc3[nH]ccc23)s1)c1ccccc1 (stereo not shown) : %Inh value = 30

// O=C(Nc1n[nH]c2cc(-c3ccoc3)ccc12)C1CC1 : %Inh value = 0

// CN(C)S(=O)(=O)c1cc(-c2ccc3nccc(-c4cccc(S(N)(=O)=O)c4)c3c2)cnc1N : %Inh value = 0

// O=c1[nH]cc(-c2ccc(N3CCOCC3)cc2)c2sc(-c3cn[nH]c3)cc12 : %Inh value = 0

// Cc1ccc(F)c(C(=O)Nc2cccc(-c3nn4ccccc4c3-c3ccnc(Nc4cccc(F)c4)n3)c2)c1F : %Inh value = 19

// Cl.c1ccc(-c2ccc3c(Nc4ccc5[nH]ncc5c4)ccnc3c2)nc1 : %Inh value = 14

----------
Test system: ZAK
Details: concentration: 1 μM, replicates: in singlicate; n = 1
reported metric: %Inh

// CNC(=O)c1ccccc1Nc1nc(Nc2ccc(N3CCOCC3)cc2)ncc1Cl.Cl : %Inh value = 13%

// NCCCC(NC(=O)c1cc(Br)c(-c2ccnc3[nH]ccc23)s1)c1ccccc1.O=C(O)C(F)(F)F.O=C(O)C(F)(F)F (stereo not drawn) : %Inh value = 59%

// Nc1ncnc2c1nc(-c1ccccc1)n2-c1ccccc1 : %Inh value = 16%

----------
Test system: SBK1
Conditions: concentration: 1 μM, replicates: in singlicate; n = 1
reported metric: %Inh (%)
The reply should contain only the number, in %.

// Clc1ccc(-c2nn3ncccc3c2-c2ccnc(Nc3ccc4c(c3)OCCO4)n2)cc1 : %Inh value = 0

// Cc1occc1-c1ncc(OC[C@@H](N)Cc2c[nH]c3ccccc23)cc1-c1ccc2[nH]nc(C)c2c1.O=C(O)C(F)(F)F : %Inh value = 19

// c1ccc(-c2n[nH]cc2Nc2ccnc3ccccc23)nc1 : %Inh value = 25

// Cc1cccc(Nc2nc(N[C@H]3CCNC3)ncc2C(N)=O)c1.Cl : %Inh value = 42

----------
Can you tell me %Inh for the items I'm about to list?
System: TRKC
Construct: gene NTRK3
Settings: concentration: 1 μM, replicates: in singlicate; n = 1
Could you write the number and then its unit?

// CN(C)S(=O)(=O)c1cc(-c2ccc3nccc(-c4cccc(S(N)(=O)=O)c4)c3c2)cnc1N : %Inh value = 48%

// CC(C)(C)c1ccc2nccc(Nc3cccc(O)c3)c2c1 : %Inh value = 31%

// Cc1occc1-c1ncc(OC[C@@H](N)Cc2c[nH]c3ccccc23)cc1-c1ccc2[nH]nc(C)c2c1.O=C(O)C(F)(F)F : %Inh value = 0%

// Cl.Cl.NCC(NCc1ccc(-c2ccnc3[nH]ccc23)s1)c1ccccc1 (stereo not drawn) : %Inh value = 70%

// CCc1ccc(-c2ccc3c(c2)-c2c(cnn2C)S(=O)(=O)N3C)cc1 : %Inh value = 0%

// CC(=O)Nc1nc2cnc(Nc3cc(NC(=O)c4cccc(C5(C#N)CC5)c4Cl)ccc3C)nc2s1 : %Inh value = 0%

// Nc1n[nH]c2cnc(-c3ccccc3)cc12 : %Inh value = 20%

// COc1cc2c(cc1OCCN1CCNCC1)ncc1c3ccc(C#N)cc3[nH]c21 : %Inh value = 77%

// COc1ccc(Nc2nccc(N3CCC(NC(=O)Nc4cccc(OC)c4)C3)n2)cc1 (stereo not drawn) : %Inh value = 76%

----------
Test system: BMPR2
Settings: concentration: 1 μM, replicates: in singlicate; n = 1
reported metric: %Inh (%)
The reply should contain only the number, in %.

// c1ccc(-c2cnc3nccnn23)cc1 : %Inh value = 0

// COc1ccc(-c2coc3ccc(-c4nnc(SCc5ccc(OC)c(C(F)(F)F)c5)o4)cc23)cc1 : %Inh value = 14

// Cc1occc1-c1ncc(OC[C@@H](N)Cc2c[nH]c3ccccc23)cc1-c1ccc2[nH]nc(C)c2c1.O=C(O)C(F)(F)F : %Inh value = 0

// O=C(Nc1cccc(-c2nn3ccccc3c2-c2ccnc(Nc3cccc(C(F)(F)F)c3)n2)c1)c1c(F)cccc1F : %Inh value = 22

// CN(C)Cc1ccc(-c2ccc3c(Nc4ccc(Oc5ccccn5)cc4)ccnc3c2)o1 : %Inh value = 28

// CN1CCN(CCCNc2nccc(-c3c(-c4ccc(F)cc4)nn4cc(C(F)(F)F)ccc34)n2)CC1 : %Inh value = 0

// O=C(Nc1cccc(Oc2ccc3nc(NC(=O)C4CC4)cn3n2)c1)c1ccccc1C(F)(F)F : %Inh value = 0

// CCCCc1nn2ncccc2c1-c1ccnc(Nc2ccc(N3CCN(C)CC3)cc2)n1 : %Inh value = 0

----------
Test system: CLK4
Settings: concentration: 1 μM, replicates: in singlicate; n = 1
reported metric: %Inh (%)
The reply should contain only the number, in %.

// Cl.Cl.NCC(NCc1ccc(-c2ccnc3[nH]ccc23)s1)c1ccccc1 (centres unmarked) : %Inh value = 88

// Nc1n[nH]c2cnc(-c3ccccc3)cc12 : %Inh value = 64

// CC(C)c1nc(-c2cccc(NS(=O)(=O)c3c(F)cccc3F)c2F)c(-c2ccnc(Nc3ccc(N4CCOCC4)nc3)n2)s1 : %Inh value = 0

// CN(C)S(=O)(=O)c1cc(-c2ccc3nccc(-c4cccc(S(N)(=O)=O)c4)c3c2)cnc1N : %Inh value = 54

// C[C@@H](Oc1cc(-n2cnc3cc(-c4ccnc(NCCS(C)(=O)=O)c4)ccc32)sc1C(N)=O)c1ccccc1Cl : %Inh value = 47

// O=C(Nc1cccc(-c2nn3ncccc3c2-c2ccnc(Nc3ccccc3)n2)c1)c1c(F)cccc1F : %Inh value = 8

// COc1cc(Nc2nccc(-c3c(-c4cccc(NC(=O)c5c(F)cccc5F)c4)nn4ccccc34)n2)cc(OC)c1OC : %Inh value = 18

// O=C(Nc1n[nH]c2nc(-c3ccc(O)cc3)ccc12)C1CC1 : %Inh value = 15
